The measured values listed here are drawn from patent US20210238170A1.

- ASSAY_SYSTEM: human SGLT2 (Homo sapiens, UniProt P31639)
- Construct: expressed in transfected cells
- Sequence (P31639 whole entry): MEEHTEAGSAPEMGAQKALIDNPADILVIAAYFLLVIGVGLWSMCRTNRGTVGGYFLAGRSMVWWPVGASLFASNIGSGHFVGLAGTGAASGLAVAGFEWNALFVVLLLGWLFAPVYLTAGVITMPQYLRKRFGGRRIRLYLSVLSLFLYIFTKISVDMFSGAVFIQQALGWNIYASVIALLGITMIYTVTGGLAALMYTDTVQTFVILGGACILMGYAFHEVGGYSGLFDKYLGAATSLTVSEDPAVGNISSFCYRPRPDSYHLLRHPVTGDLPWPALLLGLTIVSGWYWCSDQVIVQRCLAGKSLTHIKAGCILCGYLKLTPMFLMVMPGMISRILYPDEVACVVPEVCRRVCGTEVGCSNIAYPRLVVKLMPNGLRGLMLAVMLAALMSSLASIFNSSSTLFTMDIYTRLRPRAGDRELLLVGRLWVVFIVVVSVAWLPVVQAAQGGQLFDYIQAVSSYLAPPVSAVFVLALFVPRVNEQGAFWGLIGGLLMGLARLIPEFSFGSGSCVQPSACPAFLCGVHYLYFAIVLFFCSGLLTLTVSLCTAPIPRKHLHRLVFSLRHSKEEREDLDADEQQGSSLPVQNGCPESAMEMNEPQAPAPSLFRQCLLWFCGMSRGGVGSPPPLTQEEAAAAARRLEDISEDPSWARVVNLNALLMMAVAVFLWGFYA
- MEASUREMENT_NOTES: SGLT2 in vitro assay: Na-dependent 14C-AMG uptake in CHO-K1 cells stably expressing human SGLT2
- Format: cell-based
- APPLIED_CONDITIONS: 0.3 μM; CHO-K1 cells expressing human SGLT2; read-out: SGLT2 % Inh @ 0.3 μM
MEASUREMENT_NAME: inhibition at 0.3 µM (%)

Example entries begin here.
In [3]: df
Out[3]:
                                   compound  measurement_units  measured_value
0  C[C@]1(F)[C@H](O)[C@@H](O)[C@H](c2cc(Cc3ccc4c(c3)OCCO4)c(Cl)cc2O)O[C@@H]1CO                  %            89.4
1  Cc1cc(O)c([C@@H]2O[C@H](CO)[C@@](C)(F)[C@H](O)[C@H]2O)cc1Cc1ccc(OCF)cc1 (stereo in doubt)                  %              88
2  C[C@]1(F)[C@H](O)[C@@H](O)[C@H](c2cc(Cc3cc4ccccc4s3)c(Cl)cc2O)O[C@@H]1CO                  %            87.8
3  COc1cc(O)c([C@@H]2O[C@H](CO)[C@@](C)(F)[C@H](O)[C@H]2O)cc1Cc1ccc2c(c1)OCCO2                  %            92.8
4  COc1cc(O)c([C@@H]2O[C@H](CO)[C@@](C)(F)[C@H](O)[C@H]2O)cc1Cc1ccc2c(c1)CCCO2                  %            67.4

a. CCc1cc(O)c([C@@H]2O[C@H](CO)[C@@](C)(F)[C@H](O)[C@H]2O)cc1Cc1ccc(OC)cc1
b. COc1cc(OC)c([C@@H]2O[C@H](CO)[C@@](C)(F)[C@H](O)[C@H]2O)cc1Cc1ccc2c(c1)OCCO2
From the recorded data, which exceeds the other in inhibition at 0.3 µM: a or b ? Record your answer as the label of the chosen record.
a
